Numbers sourced from patent US20070105924A1.

assay_system: GABA-AT (Sus scrofa)
Sequence (P80147 29-500): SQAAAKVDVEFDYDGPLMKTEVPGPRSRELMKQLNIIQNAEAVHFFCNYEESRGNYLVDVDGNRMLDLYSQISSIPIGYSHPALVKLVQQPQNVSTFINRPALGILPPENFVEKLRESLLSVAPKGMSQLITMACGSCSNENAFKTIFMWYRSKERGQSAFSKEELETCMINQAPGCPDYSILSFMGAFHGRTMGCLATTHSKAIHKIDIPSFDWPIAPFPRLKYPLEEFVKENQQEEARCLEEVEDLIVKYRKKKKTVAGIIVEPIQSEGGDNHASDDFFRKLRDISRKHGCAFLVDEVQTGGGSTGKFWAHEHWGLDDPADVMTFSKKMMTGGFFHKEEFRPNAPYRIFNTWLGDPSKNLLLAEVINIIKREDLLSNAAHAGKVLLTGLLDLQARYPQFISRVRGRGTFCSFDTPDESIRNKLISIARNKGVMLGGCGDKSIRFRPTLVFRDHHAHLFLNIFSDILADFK
protocol: Preliminary substrate activity test with [14C]-labeled α-ketoglutarate
Format: biochemical, pig
particulars: incubation time 48 h, GABA-AT 0.7 μM, substrate 2.5 mM, α-KG 2.9 mM
parameter: Converted α-KG (%)
One number for each entry, in %.

Please state, for each entry, its recorded Converted α-KG.
1. NCCCC(=O)O [GABA, γ-aminobutyric acid, reference compound]
2. CS(=O)(=O)NC(=O)CCN [Compound 3, Methyl b-alanylsulfonamide]
3. NCCc1nnn[nH]1 [Compound 5, 1H-Tetrazole-5-ethanamine]
4. COC(=O)NC(=O)CCN [Compound 2, Methyl β-alanylcarbamate]
5. NCc1ccc2[nH]ccc2c1 [Compound 4, Indole-5-methanamine]

Result string:
[25, 6.4, 20, 1.3, 0.1]
